# studyTarget: OsSMF1 (Oryza sativa, UniProt Q6ZLB0 1-436)
# Sequence: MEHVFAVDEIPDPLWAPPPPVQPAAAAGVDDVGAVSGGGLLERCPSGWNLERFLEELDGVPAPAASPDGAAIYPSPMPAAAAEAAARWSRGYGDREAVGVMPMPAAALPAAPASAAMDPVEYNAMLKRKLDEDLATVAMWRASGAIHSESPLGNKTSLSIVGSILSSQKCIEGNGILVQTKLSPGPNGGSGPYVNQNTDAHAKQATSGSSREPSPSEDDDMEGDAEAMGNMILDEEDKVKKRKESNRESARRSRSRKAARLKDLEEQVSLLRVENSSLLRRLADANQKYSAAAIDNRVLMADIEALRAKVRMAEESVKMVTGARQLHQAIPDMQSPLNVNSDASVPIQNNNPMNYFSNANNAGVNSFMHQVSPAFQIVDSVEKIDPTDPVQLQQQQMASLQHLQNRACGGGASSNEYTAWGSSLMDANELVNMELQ
# assayProtocol: protein-binding microarray (RPBM); PBS, 2% BSA, 51.3 ng/ul salmon testes DNA, 50 uM zinc acetate, 200 nM TF, 25 C, 1 h; high values mean tight binding
# conditionsUsed: protein: recombinant; tags: N-terminal polyhistidine and DsRed monomer fusion (pET32a); chain copies: 2; label: CyDye5-dUTP incorporated in the synthesized complementary strand; 3' TTTTT single-stranded linker to array surface; dsDNA, one strand shown
In all, about 39,000 sequences were measured (“fluorescence intensity (a.u.)”: median about 4,300, highest 2% from about 39,000 on). The full list was thinned out, with the highest values kept by preference.
endpointLabel: binding signal

AAATAAATAGGGAATTTAACCTTGCCACGTCACCGATCCGCGGAGTCACCTAGTGCAG | 48100 fluorescence intensity (a.u.)
TACTTATCCAGATTCAAAAGATAAAATTTATTATATTATACGGAGTCACCTAGTGCAG | 12600 fluorescence intensity (a.u.)
GTTTGCGAGGAATAGCGGGAACGATCCGCGCCACCACGAACGGAGTCACCTAGTGCAG | 18000 fluorescence intensity (a.u.)
CACACGCAAAGCTGCAAAAGTTGAATTCCATTATTCCACACGGAGTCACCTAGTGCAG | 65500 fluorescence intensity (a.u.)

QUERY: Tell me its binding signal given ATAAATACCGCGATAACCTCCTTAAATTCAAATAAATTTACGGAGTCACCTAGTGCAG as the entry.
RESULT: 54800 fluorescence intensity (a.u.)

QUERY: Tell me its binding signal given CCTTAAATTTTCCTAAATCCTTACCTACCGTCATTCTCTCCGGAGTCACCTAGTGCAG as the entry.
RESULT: 47400 fluorescence intensity (a.u.)

QUERY: Tell me its binding signal given ATCCACCGCTGAGTCCCAGACGAGCGAGGGCCAGATCATCCGGAGTCACCTAGTGCAG as the entry.
RESULT: 3410 fluorescence intensity (a.u.)

QUERY: Tell me its binding signal given TTTCTAATTCGTCATTCACCTCTCTCCTCCATCTCTACCCCGGAGTCACCTAGTGCAG as the entry.
RESULT: 3520 fluorescence intensity (a.u.)

QUERY: Tell me its binding signal given AAGTTTGGCTGTATTTATTCCACACCATAATTGAAAGTTTCGGAGTCACCTAGTGCAG as the entry.
RESULT: 3160 fluorescence intensity (a.u.)

Reference for the values: paper PMC7819943
